Biological target: Vascular endothelial growth factor receptor 3 (Homo sapiens) (UniProt P35916);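 note: mean FLT4 inhibition, averaged across replicates, from the GSK PKIS kinase inhibitor screen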
Sequence (P35916 whole entry): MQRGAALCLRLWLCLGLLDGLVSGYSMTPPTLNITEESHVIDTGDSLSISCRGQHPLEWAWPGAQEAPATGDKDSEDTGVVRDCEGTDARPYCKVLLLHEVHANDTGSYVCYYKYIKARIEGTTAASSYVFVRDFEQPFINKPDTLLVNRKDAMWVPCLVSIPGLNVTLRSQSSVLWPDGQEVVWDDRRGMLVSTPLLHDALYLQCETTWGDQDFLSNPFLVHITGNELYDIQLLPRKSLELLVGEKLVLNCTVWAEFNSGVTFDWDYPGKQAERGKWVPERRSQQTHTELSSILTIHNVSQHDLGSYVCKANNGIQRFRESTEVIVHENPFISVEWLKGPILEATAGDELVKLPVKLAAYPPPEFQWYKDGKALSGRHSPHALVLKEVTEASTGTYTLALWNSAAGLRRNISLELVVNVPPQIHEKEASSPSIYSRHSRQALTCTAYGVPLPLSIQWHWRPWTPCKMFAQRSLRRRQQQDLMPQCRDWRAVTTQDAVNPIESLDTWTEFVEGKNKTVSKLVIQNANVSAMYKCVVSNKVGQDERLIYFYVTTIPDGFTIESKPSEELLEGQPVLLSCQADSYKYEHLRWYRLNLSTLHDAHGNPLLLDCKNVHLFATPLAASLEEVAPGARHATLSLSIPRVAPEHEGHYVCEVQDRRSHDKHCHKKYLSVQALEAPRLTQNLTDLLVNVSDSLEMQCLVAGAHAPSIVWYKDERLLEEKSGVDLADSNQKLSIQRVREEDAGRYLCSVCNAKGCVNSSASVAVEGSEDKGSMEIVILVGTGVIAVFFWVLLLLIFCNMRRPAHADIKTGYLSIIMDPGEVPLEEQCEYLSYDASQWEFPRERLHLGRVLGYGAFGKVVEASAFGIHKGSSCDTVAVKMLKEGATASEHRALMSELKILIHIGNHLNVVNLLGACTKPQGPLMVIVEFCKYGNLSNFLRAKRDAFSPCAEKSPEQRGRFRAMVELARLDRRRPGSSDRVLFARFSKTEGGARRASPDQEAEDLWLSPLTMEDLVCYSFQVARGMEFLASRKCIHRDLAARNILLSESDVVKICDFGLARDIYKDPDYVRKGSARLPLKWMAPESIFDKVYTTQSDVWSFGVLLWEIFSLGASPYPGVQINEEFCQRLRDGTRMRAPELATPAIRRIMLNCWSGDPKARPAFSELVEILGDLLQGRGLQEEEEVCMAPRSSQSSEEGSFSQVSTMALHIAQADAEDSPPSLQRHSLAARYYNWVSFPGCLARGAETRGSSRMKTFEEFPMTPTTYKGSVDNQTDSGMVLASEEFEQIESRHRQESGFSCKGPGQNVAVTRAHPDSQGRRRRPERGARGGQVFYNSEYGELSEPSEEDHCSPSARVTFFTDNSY
Conditions: at 1 µM
Below is a list of entries, each paired with its recorded inhibition value.
The answer is to be given in %; state only the numeric part.

Some solved cases for reference:
NS(=O)(=O)c1ccc(N/N=C2\C(=O)Nc3ccc(Cl)cc32)cc1 = 9.79
O=C1Nc2ccccc2/C1=C/Nc1ccc2[nH]c(=O)[nH]c2c1 = 26.6
c1ccc(Cc2nc3ccc(Nc4ncnc5ccccc45)cc3[nH]2)cc1 = 2.3
C[C@@H](Oc1cc(-n2cnc3ccc(OCC4CCN(C)CC4)cc32)sc1C(N)=O)c1ccccc1C(F)(F)F = 18.6

What the record says about Cc1cc(Cl)cc2c1NC(=O)C2=NNc1ccc(S(N)(=O)=O)cc1 : inhibition is 1.06

What the record says about Nc1nccc(-c2c(-c3ccc(F)cc3)ncn2CCCN2CCOCC2)n1 : inhibition is 17
